Source of measurements: patent US20170052184A1

# Target Entity: T1, HCV Core1-169 (hepatitis C virus (HCV-1), UniProt P26664 1-169)
# T1 sequence: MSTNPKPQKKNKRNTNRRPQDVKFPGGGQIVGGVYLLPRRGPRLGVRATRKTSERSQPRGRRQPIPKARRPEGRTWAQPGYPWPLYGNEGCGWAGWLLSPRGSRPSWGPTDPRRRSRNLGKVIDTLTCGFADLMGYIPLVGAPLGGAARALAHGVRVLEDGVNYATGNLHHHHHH
# Test Details: SPR sandwich, capture mAb C11-7
Experimental Readout: expected percent binding (%)
Give bare numbers, in %.

Please review the following examples before continuing.
>  <Binder>
HCV 208A-877 (antibody, V domains shown) VH: QLQQSGPELVKPGASVKISCKTSGYTFTENAMHWVKQSRGKSLEWIGGVNPNNGDTVYTQKFKGKATLTVAKSSSTAYMELRTMTCEESTVYYCASREPDFFDYWGQGSSVTVSS VL: QIVLTQSPAIMSVSPGEKVSMTCSASSSVTYMHWYQQKSGTSPKRWIYDTSELASGVPARFSGSGSGTTYSLTISSMEAEDAATYYCQQWSNKPLTFGAGTKLELKR

>  <Units Of Measure>
%

>  <expected percent binding>
12.1

$$$$
>  <Binder>
HCV 208A-210 (antibody, V domains shown) VH: QVQLQQSGPELVKPGASMRISCKASGYTFTSYYVHWIKQRPGQGLEWIGCIYPGDVNTDYNEKFKGKATLTADKSSSTAYMQVSTLTSEDSAIYFCVLYYYGSFAYWGQGTLVTVSA VL: EIVLTQSPAITAASLGQNVTITCRASSSVSYMHWYRQKSGTSPQLWIYEISRRASGVPARFRASGSGTSYSLTISSMEAEDAAIYYCQQWNYPLTFGAGTKLEVKR

>  <Units Of Measure>
%

>  <expected percent binding>
1.6

$$$$
>  <Binder>
HCV 208B-672 (antibody, V domains shown) VH: EVKLVESGGSLVQPGGSLKLSCAASGFNFNTYAMSWVRQTPEKRLEWVAYISNGGGNTYYVDTVKGRFTISRDNAKNTLYLRMSSLKSEDTAMYYCARHGLYWGYSMDYWGQGTSVTVSS VL: DIQMTQSPSSLSASLGERVSLTCRASQDIGGSINWLQQEPDGTIKRLIYATSSLDSGVPKRFSGSRSGSDYSLTISSLESEDFVDYYCLQYASSPPTFGGGTKLEIKR

>  <Units Of Measure>
%

>  <expected percent binding>
2.8

$$$$
>  <Binder>
HCV 208B-556 (antibody, V domains shown) VH: QLQQSGPVLVKPGASVMISCKTSGYTFTENAMHWVKQSHGKSLEWIGGVNPNNGDTIFNQKFKGKATLTVDKSSSTAFMEFRSLTSEESTVYYCVRRELDFFDYWGQGTSVTVSS VL: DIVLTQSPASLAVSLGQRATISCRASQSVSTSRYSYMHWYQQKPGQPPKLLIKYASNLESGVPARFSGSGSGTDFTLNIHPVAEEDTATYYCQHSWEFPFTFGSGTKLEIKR

>  <Units Of Measure>
%

>  <expected percent binding>
15.3

$$$$

Okay, now this binder:
Record request: expected percent binding value, item HCV 208B-560 (antibody, V domains shown) VH: EVQLQQSGPELEKPGASVKISCKTSGYTFTEYAMHWVKQSHGMSLEWIGGINPSNGNAIYNQIFKDKATLTVDRSSSTAYMGLRSLTFGDSGVYFCVRRQLDFFDYWGQGASLTVSS VL: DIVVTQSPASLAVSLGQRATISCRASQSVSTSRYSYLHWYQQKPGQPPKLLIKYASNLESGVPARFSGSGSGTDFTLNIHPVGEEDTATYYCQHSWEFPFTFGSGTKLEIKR
15.5
